- assayed.system: human Peroxisome Proliferator-activated Receptor delta (PPARd), PPARD (gene 5467)
- assay.method.text: ATG_PPARd_TRANS: Attagene TRANS-FACTORIAL HepG2 Assay for human Peroxisome Proliferator-activated Receptor delta (PPARd) (AID 2283002)
Inconclusive results are not listed. The source made the active and inactive calls. How the source made its calls: active means hit-call score of the fitted dose curve at least 0.9, where 1 is the maximum; inconclusive means response in the unintended direction; inactive means score below 0.9.
readout.kind: outcome

>>> recorded_measurement("N#CSCSC#N")
"inactive"
>>> recorded_measurement("CC(C)N(C(=O)SCC(Cl)=C(Cl)Cl)C(C)C")
"inactive"
>>> recorded_measurement("CON=C(C(=O)OC)c1ccccc1CON=C(C)c1cccc(C(F)(F)F)c1")
"inactive"
>>> recorded_measurement("CC(COc1ccc(Oc2ccccc2)cc1)Oc1ccccn1 (configuration not stated)")
"inactive"
>>> recorded_measurement("CC(Oc1cccc(Cl)c1)C(=O)O (configuration not stated)")
"inactive"
>>> recorded_measurement("CN(C)NC(=O)CCC(=O)O")
"inactive"

Read the next record carefully.
outcome reading for COP(=O)(OC)C(O)C(Cl)(Cl)Cl (configuration not stated) : inactive
